System: Escherichia coli TOP10
Assay: shrunken log2 fold change of peptide-encoding DNA abundance (4.5 h post-induction vs induction); higher = less antimicrobial activity (less host growth inhibition)
Conditions: time post-induction: 4.5 h; library: site-saturation at positions 5, 18, 19, 20
Response key: Fulfilled means shrunken log2 fold change >= 0.03; Not fulfilled means shrunken log2 fold change < 0.03.

INPUT: Check this sequence for shrunken log2 fold change at or above 0.03: RRIRSRPPRLPRPRPRPVPDPRP
OUTPUT: Not fulfilled

INPUT: Moving on to RRIRCRPPRLPRPRPRPRFLPRP
OUTPUT: Not fulfilled

INPUT: Entry RRIRTRPPRLPRPRPRPITNPRP please
OUTPUT: Not fulfilled

INPUT: Follow-up item: RRIRPRPPRLPRPRPRPWGWPRP
OUTPUT: Fulfilled

INPUT: Could you do the same for RRIRTRPPRLPRPRPRPERWPRP , please?
OUTPUT: Fulfilled

INPUT: Next sequence up: RRIRWRPPRLPRPRPRPTWNPRP
OUTPUT: Fulfilled

INPUT: What do we get for RRIRYRPPRLPRPRPRPRNCPRP ?
OUTPUT: Not fulfilled

INPUT: Same for RRIRPRPPRLPRPRPRPYTVPRP
OUTPUT: Not fulfilled

INPUT: Thanks! And RRIRVRPPRLPRPRPRPMFFPRP ?
OUTPUT: Not fulfilled

INPUT: What do we get for RRIRFRPPRLPRPRPRPHENPRP ?
OUTPUT: Not fulfilled

INPUT: Note, next up: RRIRWRPPRLPRPRPRPSMNPRP
OUTPUT: Fulfilled

INPUT: Next entry: RRIRHRPPRLPRPRPRPSDMPRP
OUTPUT: Fulfilled

INPUT: Same question, RRIRRRPPRLPRPRPRPDNFPRP this time
OUTPUT: Not fulfilled

INPUT: // next record RRIRMRPPRLPRPRPRPTHTPRP
OUTPUT: Fulfilled

INPUT: Try this sequence next: RRIRTRPPRLPRPRPRPANWPRP
OUTPUT: Fulfilled

INPUT: Now consider RRIRYRPPRLPRPRPRPQTVPRP .
OUTPUT: Not fulfilled

INPUT: Follow-up item: RRIRMRPPRLPRPRPRPDGHPRP
OUTPUT: Not fulfilled

INPUT: Then what about the sequence RRIRGRPPRLPRPRPRPCMWPRP ?
OUTPUT: Fulfilled

INPUT: Would you kindly repeat that for RRIRDRPPRLPRPRPRPPYYPRP ?
OUTPUT: Not fulfilled

INPUT: Next record, please: RRIRMRPPRLPRPRPRPCGGPRP
OUTPUT: Fulfilled

INPUT: Input RRIRYRPPRLPRPRPRPGYLPRP
OUTPUT: Not fulfilled

INPUT: Repeat with RRIRGRPPRLPRPRPRPRAVPRP
OUTPUT: Fulfilled

INPUT: Now give it for RRIRKRPPRLPRPRPRPWCLPRP too.
OUTPUT: Not fulfilled

INPUT: Entry to check: RRIRKRPPRLPRPRPRPMMMPRP
OUTPUT: Fulfilled

---

Would you kindly list shrunken log2 fold change for each of these sequences?
Tested on: Escherichia coli TOP10;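 further: peptides expressed intracellularly from a pBAD plasmid library in pooled LB shake-flask culture, induced with 0.3% L-arabinose, DNA abundance read by NGS, three biological replicates, DESeq2 with apeglm shrinkage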
Assay: shrunken log2 fold change of peptide-encoding DNA abundance (4.5 h post-induction vs induction); higher = less antimicrobial activity (less host growth inhibition)
Details: time post-induction: 4.5 h; library: site-saturation at positions 5, 18, 19, 20

INPUT: Param item = RRIRLRPPRLPRPRPRPNTMPRP ; retrieve measured shrunken log2 fold change.
OUTPUT: -0.501

INPUT: Please give the result for RRIRRRPPRLPRPRPRPLVPPRP too.
OUTPUT: 0.175

INPUT: Item: RRIRHRPPRLPRPRPRPNYEPRP
OUTPUT: -0.586

INPUT: Can you check RRIRYRPPRLPRPRPRPMGHPRP next?
OUTPUT: -1.16

INPUT: And the next one, RRIRGRPPRLPRPRPRPTLSPRP ?
OUTPUT: 0.313

INPUT: Again, but for RRIRNRPPRLPRPRPRPDCDPRP
OUTPUT: -0.132
